- tested on: UniProt O14684
- Sequence (O14684 whole entry): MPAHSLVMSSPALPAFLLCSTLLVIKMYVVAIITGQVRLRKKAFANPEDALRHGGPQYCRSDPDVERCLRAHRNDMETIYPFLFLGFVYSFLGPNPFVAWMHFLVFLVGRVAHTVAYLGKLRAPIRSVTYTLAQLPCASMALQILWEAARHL
- experiment summary: Inhibition of mPGES1 (unknown origin) transfected in HEK293 cells co-expressing COX1 using arachidonic acid as substrate assessed as inhibition of PGE2 production incubated for 30 mins prior to arachidonic acid addition measured after 60 mins by HTRF assay
assay endpoint: pIC50
Units for pIC50: none; it is -log10 of a concentration expressed in mol/L.

Here are 9 compounds together with their reported answers.
CN(C)c1nc2cc(Br)ccc2c2[nH]c(-c3ccccc3Cl)nc12 ... 6.41
Cn1c(-c2ccccc2Cl)nc2c3ccc(Br)cc3[nH]c(=O)c21 ... 5.01
CNc1nc2cc(Br)ccc2c2nc(-c3ccccc3Cl)[nH]c12 ... 6.20
CSc1nc2cc(Br)ccc2c2nc(-c3ccccc3Cl)[nH]c12 ... 7.51
O=c1c2[nH]c(-c3ccccc3Cl)nc2c2ccc(Br)cc2n1Cc1ccccc1 ... 6.65
CCSc1nc2cc(Br)ccc2c2[nH]c(-c3ccccc3Cl)nc12 ... 7.23
CCn1c(=O)c2[nH]c(-c3ccccc3Cl)nc2c2ccc(Br)cc21 ... 6.97
S=c1[nH]c2cc(Br)ccc2c2nc(-c3ccccc3Cl)[nH]c12 ... 7.08
Cn1c(=O)c2[nH]c(-c3ccccc3Cl)nc2c2ccc(Br)cc21 ... 7.07

The compound Nc1nc2cc(Br)ccc2c2[nH]c(-c3ccccc3Cl)nc12 , tested on UniProt O14684, showed pIC50 of 5.97

###

Reported IC50 values follow for various compounds
- tested on: Prostaglandin E synthase (Homo sapiens, UniProt O14684)
- experiment summary: Inhibition of mPGES1 (unknown origin) transfected in HEK293 cells co-expressing COX1 using arachidonic acid as substrate assessed as inhibition of PGE2 production incubated for 30 mins prior to arachidonic acid addition measured after 60 mins by HTRF assay

O=c1[nH]c2cc(Br)ccc2c2nc(-c3ccccc3Cl)n(Cc3ccccc3)c12 ... > 10 µM
Cn1c(-c2ccccc2Cl)nc2c(=O)[nH]c3cc(Br)ccc3c21 ... > 10 µM

Next item in the queue.
The value of IC50 measured for the compound Cn1c(-c2ccccc2Cl)nc2c3ccc(Br)cc3n(C)c(=O)c21 turned out to be > 10 µM
